Molecular target: Fibroblast growth factor 2 (Homo sapiens) (UniProt P09038)
Sequence (P09038 whole entry, looked up): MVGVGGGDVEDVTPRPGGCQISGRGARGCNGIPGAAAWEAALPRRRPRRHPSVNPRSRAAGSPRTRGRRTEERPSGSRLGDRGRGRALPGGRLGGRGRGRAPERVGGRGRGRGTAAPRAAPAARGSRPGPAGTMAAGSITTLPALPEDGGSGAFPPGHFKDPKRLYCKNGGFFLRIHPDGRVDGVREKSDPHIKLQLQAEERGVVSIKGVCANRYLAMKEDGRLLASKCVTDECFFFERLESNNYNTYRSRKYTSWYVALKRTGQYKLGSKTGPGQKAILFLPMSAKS
Test: FGF2 binders on small-molecule microarrays, primary screen, biochemical, small-molecule microarray, 635/667 nm fluorescence (AID 1133)
Conditions: small-molecule microarray binding, FGF2, fluorescence 635/667; higher = more signal
measureName: composite z-score
Numbers only.

Recorded composite z-score, per entry:
- molecule: "C=C[C@@H](C)[C@H](O)c1ccc(OCCO)cc1"
  assayedSystem: "Fibroblast growth factor 2 (Homo sapiens) (UniProt P09038)"
  composite z-score: -0.994
- molecule: "COCCOC(=O)N1C(=O)[C@@]2(c3cc(C#CCC(C(=O)OC)C(=O)OC)ccc31)[C@H](c1ccc(OCCO)cc1)N1[C@H](c3ccccc3)[C@H](c3ccccc3)OC(=O)[C@H]1[C@@H]2C(=O)Nc1nc2ccccc2s1"
  assayedSystem: "Fibroblast growth factor 2 (Homo sapiens) (UniProt P09038)"
  composite z-score: 0.35
- molecule: "CCOC(=O)C1=C[C@@H](C(C)(C)C)N(S(=O)(=O)c2ccc(C)cc2)[C@H]1c1cccc(Cl)c1"
  assayedSystem: "Fibroblast growth factor 2 (Homo sapiens) (UniProt P09038)"
  composite z-score: 0.556

Query composite z-score for COc1cc(NN2C(C(O)c3cc(OC)c(OC)c(OC)c3)C=CC3C(=O)N(c4ccccc4)C(=O)C32)cc(OC)c1OC (centres undefined)
1.56

====

Provide the recorded z-score for the entries that follow.
Test: FRG1 promoter luciferase signal modulators, primary screen, FRG1 inhibition for FSHD, cell-based, C2C12 myotubes, firefly/Renilla luciferase, luminescence (AID 1084)
Settings: higher = more signal, called active from +8 up or from −8 down
Give bare numbers.

- molecule: "CN(C)C(=O)[C@@]1(Cc2ccccc2)COC(c2ccc(OCCCO)cc2)=N1"
  val: -0.698
- molecule: "CN(C)C(=O)[C@@]1(Cc2ccccc2N=[N+]=[N-])N=C(c2ccc(OCCCO)cc2)O[C@H]1c1ccccc1"
  val: -1.75
- molecule: "[N-]=[N+]=NCc1ccccc1[C@H]1OC(c2ccc(OCCCO)cc2)=N[C@@]1(CCS(=O)(=O)c1ccccc1)C(=O)NCc1ccccc1"
  val: -1.68
- molecule: "O=C1O[C@H](c2ccccc2)[C@H](c2ccccc2)N2[C@H]1[C@@H](C(=O)N1CCCCCCC1)[C@]1(C(=O)Nc3ccc(C#CC4(O)CCCCCC4)cc31)[C@H]2c1ccccc1OCCO"
  val: -1.5
- molecule: "CC(C)(C)OC(=O)CC[C@]1(C(=O)N2CCCCC2)COC(c2ccc(OCCCO)cc2)=N1"
  val: -2.51

Would you mind giving z-score for every molecule in the list below?
1. COC(=O)[C@@]1(Cc2ccccc2CN=[N+]=[N-])N=C(c2ccc(OCCCO)cc2)O[C@H]1c1ccccc1CN=[N+]=[N-]
2. NC(=O)N1C(=O)C2C(C1=O)C1C=C(CCCO)C2C(C2CC2)N1Cc1cccc(OC(F)(F)F)c1 (stereo unspecified)

1. -1.23
2. 0.0154

Would you mind giving z-score for every molecule in the list below?
1. COc1cc2c(cc1OC)CN(C(=O)[C@@H]1[C@H]3C(=O)O[C@H](c4ccccc4)[C@H](c4ccccc4)N3[C@H](c3ccc(O)cc3)[C@@]13C(=O)Nc1ccc(C#CCCO)cc13)CC2
2. CC1CC/C=C\[C@H]2OC34C=CCN(CCN5CCOCC5)C(=O)[C@H]3N(C(C)CO)C(=O)[C@@H]4C2C(=O)O1 (stereo partly specified)
3. COC(=O)C1=CC(CCCO)=CC(c2ccc(CN3CCCC3)cc2)N(Cc2cc3c(cc2Br)OCO3)C=C1C(=O)OC (stereo unspecified)
4. C=C(C(=O)CC[C@H](OC(=O)c1ccccc1-c1ccccc1C(=O)O)c1ccccc1OCCO)C(C)C

1. -0.101
2. -0.203
3. 0.046
4. -1.38

====

Provide the recorded composite z-score for the entries that follow.
Experiment: binders from COS7 lysate, DM2A8 probe, primary screen, torsin A project, cell lysate, small-molecule microarray, fluorescence 635/667 (AID 1065)
Details: higher = more signal, COS7 lysate expressing mutant human TOR1A
Give bare numbers.

Recorded composite z-score, per entry:
- molecule: "CCC(CC)C(O)C1C=CC2C(=O)N(c3ccccc3)C(=O)C2N1Nc1ccc([N+](=O)[O-])cc1 (stereo not drawn)"
  measureName: "composite z-score"
  val: -0.0903
- molecule: "NC(=O)[C@H]1[C@@H]2C(=O)O[C@@H](c3ccccc3)[C@@H](c3ccccc3)N2[C@@H](c2ccc(O)cc2)[C@]12C(=O)Nc1ccc(C#CC3=CCCCC3)cc12"
  measureName: "composite z-score"
  val: 0.813
- molecule: "COc1ccc(C(=O)Nc2cccc(CN3C(=O)[C@]4(O[C@H](CCn5cc([C@H](O)c6ccccc6)nn5)[C@@H]([Si](C)(C)c5ccc(OC)cc5)[C@@H]4C)c4ccccc43)c2)cc1"
  measureName: "composite z-score"
  val: -0.505
- molecule: "Cc1ccccc1C(O)C1C=CC2C(=O)NC(=O)C2N1Nc1ccc(Cl)cc1Cl (stereo not drawn)"
  measureName: "composite z-score"
  val: 0.328

Would you mind giving composite z-score for every molecule in the list below?
1. O=C(O)[C@H]1C[C@H]2C(=O)N[C@@H](Cc3ccccc3)C(=O)N2[C@H]1c1cccc(OCCO)c1
2. COc1ccc([Si](C)(C)[C@@H]2[C@@H](CC(=O)N3Cc4ccccc4C[C@H]3CO)O[C@]3(C(=O)N(Cc4ccc(N5CCC5=O)cc4)c4ccccc43)[C@H]2C)cc1
3. CC(C)C[C@@H]1NC(=O)[C@H]2C[C@@H](C(=O)NCCCCCN)[C@@H](c3cccc(OCCO)c3)N2C1=O

1: 0.96; 2: 0.351; 3: -0.1

Would you mind giving composite z-score for every molecule in the list below?
1. CCCCNC(=O)c1ccc(C#C[Si](C(C)C)(C(C)C)C(C)C)c(OC(C)=O)c1
2. COCCOC(=O)N1C(=O)[C@@]2(c3cc(C#CC4=CCCCC4)ccc31)[C@H](c1ccc(O)cc1)N1[C@H](c3ccccc3)[C@H](c3ccccc3)OC(=O)[C@H]1[C@@H]2C(=O)NC[C@H](O)c1ccccc1
3. CC(C)[C@H]1NC(=O)[C@@]23C(=O)N[C@@H](Cc4ccccc4)C2[C@H](C)[C@@]2(C)O[C@H]2C3/C=C/CCC/C=C/CNC(=O)[C@H](Cc2ccccc2)NC1=O (stereo partly drawn)
4. COCCOC(=O)N1C(=O)[C@@]2(c3cc(C#CCC(C(=O)OC)C(=O)OC)ccc31)[C@H](c1ccc(OCCO)cc1)N1[C@H](c3ccccc3)[C@H](c3ccccc3)OC(=O)[C@H]1[C@@H]2C(=O)Nc1nc2ccccc2s1
5. C[C@@H]1ON(c2ccc(I)cc2)[C@H](c2ccc(OC(=O)OC(C)(C)C)cc2)[C@H]1C(=O)N1C(=O)OC[C@H]1Cc1ccccc1
6. CN(C)CCCNC(=O)[C@@H]1c2ccccc2C(=O)N(C2CCCCC2)[C@H]1c1ccc(CO)cc1
7. C=CC[C@H](OC(=O)Nc1ccc(SC)cc1)c1ccc(OCCO)cc1
8. CC(=O)NCCCC[C@@H]1NC(=O)[C@@H]2C[C@H](C(=O)NCCCCCCN)[C@H](c3cccc(OCCO)c3)N2C1=O

-0.189
0.167
0.719
0.215
0.0988
0.249
0.0366
0.43

Would you mind giving composite z-score for every molecule in the list below?
1. COc1cc(C(O)C2C=CC3C(=O)N(Cc4ccccc4)C(=O)C3N2n2cnnc2)cc(OC)c1OC (stereo not drawn)
2. NC(=O)N1C(=O)C2C(C1=O)C1C=C(CCCO)C2C(C2CC2)N1Cc1cccc(OC(F)(F)F)c1 (stereo not drawn)
3. O=C1O[C@H](c2ccccc2)[C@H](c2ccccc2)N2[C@H]1[C@@H](C(=O)Nc1nc3ccccc3s1)[C@]1(C(=O)Nc3ccc(C#CC4=CCCCC4)cc31)[C@H]2c1ccc(O)cc1
4. COC(=O)C1=CC(CCCO)=CC(C)N(Cc2cccc(OC(F)(F)F)c2)C=C1C(=O)OC (stereo not drawn)

[0.606, 0.497, 0.255, -0.383]

Would you mind giving composite z-score for every molecule in the list below?
1. CC1CC/C=C\[C@H]2OC34C=CCN(C(C)(C)C)C(=O)[C@H]3N(C(CO)C(C)C)C(=O)[C@@H]4C2C(=O)O1 (stereo partly drawn)
2. O=C1C2C=CC(C(O)C=Cc3ccc([N+](=O)[O-])cc3)N(Nc3ccccc3)C2C(=O)N1c1ccccc1 (stereo not drawn)
3. C=C(/C(=C/C[C@H](OC(=O)c1ccncc1)c1ccccc1OCCO)c1cnc2ccccc2c1)C(C)C
4. CCCC=C(CCC)[C@@H](NS(=O)(=O)c1cccc2cccnc12)c1ccc(-c2ccccc2)cc1

[2.01, -0.0552, 0.763, 0.185]

====

Test system: Lefty1
Assay: Lefty1 binders on small-molecule microarrays, primary screen, biochemical, small-molecule microarray, 635/667 nm fluorescence (AID 1139)
Settings: small-molecule microarray binding, fluorescence 635/667; higher = more signal
measureName: composite z-score
Give bare numbers.

Recorded composite z-score, per entry:
- compound: "CCOC(=O)C=Cc1ccccc1O"
  composite z-score: 0.175
- compound: "C=C[C@H](C)[C@H](OC(=O)Nc1ccc(OC)cc1)c1ccc(OCCO)cc1"
  composite z-score: -0.431
- compound: "[N-]=[N+]=NC[C@H](Cc1ccccc1)NC(=O)c1ccccc1"
  composite z-score: -0.156
- compound: "CC(C)CNC(=O)[C@@]1(c2ccc([N+](=O)[O-])cc2)CC(=O)N(C2CCCCC2)[C@@H]1c1ccc(CO)cc1"
  composite z-score: -0.35
- compound: "COc1cc(NN2C(C(O)c3ccc(I)cc3)C=CC3C(=O)N(c4ccccc4)C(=O)C32)cc(OC)c1OC (stereo not given)"
  composite z-score: 0.52

Would you mind giving composite z-score for every compound in the list below?
1. C=C[C@@H](OC)[C@H](OC(=O)Nc1ccc(OC)cc1)c1ccc(OC)c(O)c1
2. COC(=O)[C@@]1(Cc2ccc(OC)cc2)[C@H]2c3cc(C(=O)N4CCCC4)n(Cc4ccc(S(C)(=O)=O)cc4)c3C[C@H]2CN1C(=O)c1ccccc1
3. CN1C(=O)C2C=CC(C(O)c3ccc(I)cc3)N(Nc3ccccc3)C2C1=O (stereo not given)

1: -0.396; 2: -0.0956; 3: 0.465
